Data origin, for the record: PubChem BioAssay (NCATS)

# Experiment Notes: Drug repurposing screens with cells derived from glioblastoma tumor samples (AID 1345199); also: potency is read from the fitted curve at half-maximal effect; nearly all actives have a fitted effect of over 40% in size
# Details: GBM patient neurospheres viability, ATP luminescence, 48 h; tumour line A
Inconclusive results are not listed. Calls of active or inactive are those of the source. Calls follow the shape of the dose curve; as a rule, active = well fitted inhibition curve with a large enough effect; inconclusive = small, poorly fitted or top-dose-only effect; inactive = flat fitted curve, though single readings scatter.
In this section, each of the compounds is paired with its reported Potency.

Task: Form field: reported Potency of Cc1cccc(CN2CCN(C(c3ccccc3)c3ccc(Cl)cc3)CC2)c1 (stereo unspecified)
Output: 5.62 µM (active)

Task: Would you mind telling me what Potency value was observed for COC(=O)N[C@H](C(=O)N[C@@H](Cc1ccccc1)[C@@H](O)CN(Cc1ccc(-c2ccccn2)cc1)NC(=O)[C@@H](NC(=O)OC)C(C)(C)C)C(C)(C)C ?
Output: 11.2 µM (active)

Task: # input compound: S=c1nc[nH]c2nc[nH]c12 ; wanted: its Potency
Output: 5.01 µM (active)

Task: Using the record for Cc1cc2c(s1)Nc1ccccc1N=C2N1CCN(C)CC1 , report its Potency.
Output: 12.6 µM (active)

Task: # Potency lookup, item Nc1ccn([C@@H]2O[C@H](CO)[C@@H](O)C2O)c(=O)n1 (stereo partly specified)
Output: 7.08 µM (active)

---

# Experiment Notes: qHTS of pediatric cancer cell lines to identify multiple opportunities for drug repurposing: Primary screen for OHS-50 cells (AID 1347103); also: nearly all actives have a fitted effect of over 40% in size; also: potency is read from the fitted curve at half-maximal effect
# Details: OHS-50 osteosarcoma viability, CellTiter-Glo luminescence, 48 h; series mostly up to 57.3 µM
Results filed as inconclusive are left out. Activity calls are given as the source filed them. The call rests on the fitted dose curve; in most records, active means well fitted cell-killing curve with a large enough effect; inconclusive means small, poorly fitted or top-dose-only effect; inactive means no such curve, though single readings can be large or run the other way.
Metric Name: Potency

Observe how each entry below is paired with its result.
>>> result("COc1cc2nc(N3CCN(C(=O)C4CCCO4)CC3)nc(N)c2cc1OC (stereo unspecified)")
"inactive"
>>> result("COCCCOc1ccnc(CS(=O)c2nc3ccccc3[nH]2)c1C (stereo unspecified)")
"inactive"
>>> result("COc1ccccc1N1CCN(CCN(C(=O)C2CCCCC2)c2ccccn2)CC1")
"inactive"
>>> result("N=C(N=C(N)N)N1CCOCC1")
"inactive"

Task: Which Potency is reported for this compound? CNC[C@@H](O)[C@@H](O)[C@H](O)[C@H](O)CO
Output: inactive

Task: Need Potency, item O=C(NOCC1CC1)c1ccc(F)c(F)c1Nc1ccc(I)cc1Cl
Output: 19.3 µM (active)

Task: State the recorded Potency for this entry: CC1(C)NC(=O)N(c2ccc([N+](=O)[O-])c(C(F)(F)F)c2)C1=O
Output: inactive

Task: # lookup: Potency of CN(C)c1ccc(O)c2c1C[C@H]1C[C@H]3[C@H](N(C)C)C(=O)C(C(N)=O)=C(O)[C@@]3(O)C(=O)C1=C2O
Output: inactive

---

# Experiment Notes: Quantitative High-Throughput drug screen in 47 multiple myeloma cell lines against the NCATS MIPE library collection: AMO1_DSMZ cell viability assay (AID 1918927;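 also: 100% = DMSO only wells and 0% = cell-free media only wells; nearly all actives have a fitted effect of over 30% in size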)
# Details: AMO1 myeloma cells viability, CellTiter-Glo ATP luminescence, 48 h; series mostly up to 45.8 µM
Results filed as inconclusive are left out. Calls of active or inactive are those of the source. Calls come from the whole dose curve; as a rule, active = well fitted cell-killing curve with a large enough effect; inconclusive = small, poorly fitted or top-dose-only effect, or effect the other way; inactive = no such curve, though single readings can be large or run the other way.
Hi there, use one of these labels in your reply, thanks! 1 (yes) = active, 0 (no) = inactive

Some solved cases for reference:
>>> category_label("O=C1c2c(O)cc(O)cc2OC(c2ccc(O)c(O)c2)C1O (stereo unspecified)")
"0 (no)"
>>> category_label("CCCCC(CC)COC(=O)C(C#N)=C(c1ccccc1)c1ccccc1 (stereo unspecified)")
"0 (no)"
>>> category_label("CC(S)C(=O)NCC(=O)O (stereo unspecified)")
"0 (no)"
>>> category_label("Cc1cc(O)c2c(c1)C(=O)c1cc(O)cc(O)c1C2=O")
"0 (no)"
>>> category_label("Cc1ncc([N+](=O)[O-])n1CC(C)O (stereo unspecified)")
"0 (no)"

Alright, here's another compound for you.
Task: State the result this test recorded for CC(C)c1ccc2c(c1)c(SC(C)(C)C)c(CC(C)(C)C(=O)O)n2Cc1ccc(Cl)cc1 .
Output: 0 (no)

---

# Experiment Notes: qHTS of pediatric cancer cell lines to identify multiple opportunities for drug repurposing: Primary screen for NB1643 cells (AID 1347099);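 also: plate controls were DMSO neutral control for no effect and bortezomib positive control for full effect; nearly all actives have a fitted effect of over 50% in size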
# Details: NB1643 neuroblastoma viability, CellTiter-Glo luminescence, 48 h; series mostly up to 46 µM
Results filed as inconclusive are left out. The source made the active and inactive calls. Calls come from the whole dose curve; as a rule, active = well fitted cell-killing curve with a large enough effect; inconclusive = small, poorly fitted or top-dose-only effect; inactive = no such curve, though single readings can be large or run the other way.
Choose one outcome from this list and give only that: yes = active, no = inactive

Reference set (2 entries):
>>> category_label("CC(=O)Nc1ccc(O)cc1")
"no"
>>> category_label("O=P(O)(O)C(O)(Cn1ccnc1)P(=O)(O)O")
"no"

Task: Assay result, entry COCCCOc1ccnc(CS(=O)c2nc3ccccc3[nH]2)c1C (stereo not drawn) — outcome?
Output: no

Task: Kindly provide the recorded test outcome for the following compound: c1ccc2[nH]c(-c3cscn3)nc2c1
Output: no

---

# Test system: ECU
# Experiment Notes: qHTS profiling for inhibitors of Plasmodium falciparum proliferation (AID 504749); also: nearly all actives have a fitted effect of over 60% in size
# Details: P. falciparum in erythrocytes, SYBR Green DNA, 72 h; series mostly up to 28.7 µM
Inconclusive results are not listed. The source made the active and inactive calls. The call rests on the fitted dose curve; in most records, active means well fitted inhibition curve with a large enough effect; inconclusive means small, poorly fitted or top-dose-only effect; inactive means flat fitted curve, though single readings scatter.
Select the matching outcome among active, inactive

Record excerpt, results attached:
>>> category_label("N[C@@H](Cc1cc(I)c(Oc2cc(I)c(O)c(I)c2)c(I)c1)C(=O)O")
"inactive"
>>> category_label("Nc1ccn([C@@H]2O[C@H](CO)[C@@H](O)C2O)c(=O)n1 (some centres undefined)")
"inactive"
>>> category_label("CC1=C(C)C(=O)C(C(CCCCCC(=O)O)c2ccccc2)=C(C)C1=O (centres undefined)")
"inactive"
>>> category_label("CCCCC(CC)COC(=O)C(C#N)=C(c1ccccc1)c1ccccc1 (centres undefined)")
"active"
>>> category_label("Cc1ccc(NC(=O)c2ccc(CN3CCN(C)CC3)cc2)cc1Nc1nccc(-c2cccnc2)n1")
"active"
>>> category_label("O=P(O)(O)C(O)(Cn1ccnc1)P(=O)(O)O")
"inactive"

Task: // outcome(item) with item = C[C@]12CCC(=O)C=C1CC[C@@H]1[C@H]2[C@@H](O)C[C@@]2(C)[C@H]1CC[C@]2(O)C(=O)CO
Output: inactive

Task: Test call for this compound, please: CN(C)c1ccc2nc3ccc(=[N+](C)C)cc-3sc2c1
Output: active

Task: How was COc1ccc2cc([C@H](C)C(=O)O)ccc2c1 classified in this test?
Output: inactive

Task: Fill in: this test's call for CCCCN(CCCC)CCC(O)c1cc2c(Cl)cc(Cl)cc2c2cc(C(F)(F)F)ccc12 (centres undefined) is ___
Output: active

Task: Query: recorded result category for N=C(N=C(N)N)N1CCOCC1 in this test
Output: inactive

Task: Any idea what this test logged for c1ccc2[nH]c(-c3cscn3)nc2c1 ?
Output: inactive

Task: For CCN(CC)CCOc1ccc(Cc2ccccc2)cc1 , what call appears in the results of this test?
Output: inactive

---

# Test Target: Endonuclease 4 (Escherichia coli (strain K12))
# Experiment Notes: Counterscreen for APE1 Inhibitors: qHTS Validation Assay for Inhibitors of Endonuclease IV (AID 1708)
# Details: E. coli endonuclease IV, DNA cleavage fluorescence; series mostly up to 57.1 µM
Inconclusive results are not listed. Active and inactive are the calls of the source. Calls follow the shape of the dose curve; as a rule, active = well fitted inhibition curve with a large enough effect; inconclusive = small, poorly fitted or top-dose-only effect; inactive = no such curve, though single readings can be large or run the other way.
Metric Name: outcome

>>> result("O=c1c(O)c(-c2cc(O)c(O)c(O)c2)oc2cc(O)cc(O)c12")
"inactive"
>>> result("C[C@H](Cc1ccc(O)c(O)c1)[C@@H](C)Cc1ccc(O)c(O)c1")
"inactive"
>>> result("COc1ccc2cc([C@H](C)C(=O)O)ccc2c1")
"inactive"
>>> result("O=C1c2c(O)cc(O)cc2OC(c2ccc(O)c(O)c2)C1O (stereo unspecified)")
"inactive"
>>> result("CNC[C@H](O)c1ccc(O)c(O)c1")
"inactive"
>>> result("CCN(CC)C(=S)SSC(=S)N(CC)CC")
"inactive"
>>> result("CC(=O)N1CCN(c2ccc(OC[C@H]3CO[C@](Cn4ccnc4)(c4ccc(Cl)cc4Cl)O3)cc2)CC1")
"inactive"
>>> result("CC1(C)NC(=O)N(c2ccc([N+](=O)[O-])c(C(F)(F)F)c2)C1=O")
"inactive"

Task: So what's the measured outcome for this one? Cc1cccc(C#Cc2ccccc2)n1
Output: inactive

Task: Query (compound): Cc1cc(O)c2c(c1)C(=O)c1cc(O)cc(O)c1C2=O ; field requested: outcome
Output: inactive

Task: Look at this compound and give its reported outcome. O=C(NCC1CCCCN1)c1cc(OCC(F)(F)F)ccc1OCC(F)(F)F (stereo unspecified)
Output: inactive

---

# Experiment Notes: Quantitative High-Throughput drug screen in 47 multiple myeloma cell lines against the NCATS MIPE library collection: KMS11_JCRBsus cell viability assay (AID 1919873); also: nearly all actives have a fitted effect of over 50% in size
# Details: KMS11 myeloma viability, CellTiter-Glo ATP luminescence, 48 h; series mostly up to 45.8 µM
Records with an inconclusive call do not appear. Activity calls are given as the source filed them. The call rests on the fitted dose curve; in most records, active means well fitted cell-killing curve with a large enough effect; inconclusive means small, poorly fitted or top-dose-only effect, or effect the other way; inactive means no such curve, though single readings can be large or run the other way.
Form entry, call: pick from active, inactive

>>> category_label("CC1=C(C(=O)O)N2C(=O)[C@@H](NC(=O)[C@H](N)C3=CCC=CC3)[C@H]2SC1")
"inactive"

Task: Given CN(C)C(=O)COC(=O)Cc1ccc(OC(=O)c2ccc(N=C(N)N)cc2)cc1 , state the outcome it received in this test.
Output: inactive

Task: Hi, sorry to bother you, what did the test record for CCOC(=O)C1=C(O)C(=O)N(Cc2ccccc2)C1 ?
Output: inactive

Task: Record request — test call for Oc1ccc2ccccc2c1SSc1c(O)ccc2ccccc12
Output: active

Task: Which outcome was assigned to C=C(c1ccc(C(=O)O)cc1)c1cc2c(cc1C)C(C)(C)CCC2(C)C in this test?
Output: inactive

Task: Short answer needed: outcome of this test for NC(=NCc1ccccc1)NC(=O)c1nc(Cl)c(N)nc1N ?
Output: inactive

Task: What classification did CCOC(=O)c1c(C)n(C)c2ccc(O)cc12 end up with in this test?
Output: inactive

Task: Lab log entry: CCN(CC)C(=S)SSC(=S)N(CC)CC — outcome as called in the assay?
Output: active

Task: Entry O=C(c1ccccc1)c1ccc2n1CCC2C(=O)O (stereo unspecified) : call = ?
Output: active

Task: Assay outcome for Nc1ccn([C@@H]2O[C@H](CO)[C@@H](O)C2O)c(=O)n1 (stereo partly specified) : what was it?
Output: active

Task: Which outcome was assigned to c1ccc2[nH]c(-c3cscn3)nc2c1 in this test?
Output: inactive

Task: Assay result, entry Cc1ccc(C)c(OCCCC(C)(C)C(=O)O)c1 — outcome?
Output: inactive

Task: Tell me the assay call for Cc1nc(-c2ccc(OCC(C)C)c(C#N)c2)sc1C(=O)O please.
Output: inactive

Task: Hi, do you know how CN(C)CCc1c[nH]c2ccc(Cn3cncn3)cc12 came out in this test?
Output: inactive

Task: Record lookup: outcome of this test for Nc1nc(OCc2ccccc2)c2[nH]cnc2n1 ?
Output: inactive

Task: Field: outcome | Entry: CC(C)Oc1ccc2c(=O)c(-c3ccccc3)coc2c1
Output: inactive

Task: Per the records of this test, what outcome belongs to CCN(CCO)CCCC(C)Nc1ccnc2cc(Cl)ccc12 (stereo unspecified) ?
Output: inactive

Task: Please indicate how the test categorized CCCCCCCCOc1ccccc1C(=O)Nc1ccc(C(=O)OCC[N+](C)(CC)CC)cc1 .
Output: active

Task: For O=c1ccc2ccc(O)c(O)c2o1 , which call appears in the assay record?
Output: inactive

Task: What did the test return for O=C1c2c(O)cc(O)cc2OC(c2ccc(O)c(O)c2)C1O (stereo unspecified) ?
Output: inactive

Task: # outcome recorded in this test, key = COc1cc(Nc2c(C#N)cnc3cc(OCCCN4CCN(C)CC4)c(OC)cc23)c(Cl)cc1Cl
Output: active
